Source: ChEMBL document CHEMBL3853269

Target: Beta-hexosaminidase subunit alpha (Homo sapiens, UniProt P06865)
Sequence (P06865 whole entry): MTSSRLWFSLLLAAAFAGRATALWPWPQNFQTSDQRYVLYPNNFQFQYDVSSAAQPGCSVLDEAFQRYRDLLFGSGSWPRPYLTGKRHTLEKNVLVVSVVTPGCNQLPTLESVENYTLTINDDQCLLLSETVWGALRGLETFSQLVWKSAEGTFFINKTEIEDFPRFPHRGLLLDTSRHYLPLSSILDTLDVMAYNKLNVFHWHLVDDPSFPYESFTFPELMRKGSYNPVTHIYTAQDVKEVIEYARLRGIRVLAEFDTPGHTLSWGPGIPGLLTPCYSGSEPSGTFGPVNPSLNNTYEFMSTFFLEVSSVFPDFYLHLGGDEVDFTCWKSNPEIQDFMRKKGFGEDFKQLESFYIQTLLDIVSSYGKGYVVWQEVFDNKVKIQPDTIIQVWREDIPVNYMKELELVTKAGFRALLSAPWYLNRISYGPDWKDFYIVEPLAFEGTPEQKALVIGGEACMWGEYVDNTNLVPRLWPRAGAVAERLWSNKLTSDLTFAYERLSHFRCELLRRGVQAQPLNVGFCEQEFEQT
Assay: Inhibition of beta-hexosaminidase alpha in human skin fibroblast lysate using 4-MU-N-acetyl-beta-D-glucosaminide-6-sulfate sodium salt as substrate assessed as 4-MU liberation by fluorescence assay
Measure Name: IC50 (µM)

CC(=O)N[C@H]1CN2/C(=N/c3ccccc3)SC[C@@H]2[C@@H](O)[C@H]1O 100

I: CCCCCCCC/N=C1\SC[C@@H]2[C@@H](O)[C@@H](O)[C@@H](NC(C)=O)CN12
II: CCCCCCCCNC(=S)N1C[C@H](NC(C)=O)[C@H](O)[C@H](O)[C@H]1CO
Hey, which is lower on measured IC50, I or II ? Give the label of your selection.
I
(I: 100 µM, II: 350 µM)
